# TESTED TARGET: T1, ScPif1 R324E (Saccharomyces cerevisiae, UniProt P07271 236-753, R324E)
# T1 sequence: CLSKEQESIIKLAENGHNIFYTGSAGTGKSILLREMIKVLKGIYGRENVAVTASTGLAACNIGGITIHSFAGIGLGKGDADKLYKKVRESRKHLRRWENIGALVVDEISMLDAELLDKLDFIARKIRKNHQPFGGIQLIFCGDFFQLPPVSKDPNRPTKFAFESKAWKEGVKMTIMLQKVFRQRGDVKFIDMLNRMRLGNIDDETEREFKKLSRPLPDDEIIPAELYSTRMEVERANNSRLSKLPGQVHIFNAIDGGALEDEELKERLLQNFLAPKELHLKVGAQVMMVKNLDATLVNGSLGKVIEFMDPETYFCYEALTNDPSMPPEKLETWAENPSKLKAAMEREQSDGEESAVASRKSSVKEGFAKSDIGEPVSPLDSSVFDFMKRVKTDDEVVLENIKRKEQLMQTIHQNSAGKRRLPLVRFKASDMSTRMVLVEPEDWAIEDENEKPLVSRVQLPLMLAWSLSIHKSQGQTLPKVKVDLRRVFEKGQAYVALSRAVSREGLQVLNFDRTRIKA
# METHOD: fluorescence anisotropy; no nucleotide; Fluorescence anisotropy: 20 mM HEPES-NaOH pH 7.5, 100 mM NaCl, 10% glycerol, 20 C, 10 nM FAM-DNA, 30 min, quadratic fit
# CONDITION PARAMETERS: protein: recombinant; tags: N-terminal SUMO tag, cleaved; label: 3' 6-FAM; parallel intramolecular G4
EXPERIMENTAL ENDPOINT: Kd (nM)
Reply with just the number (in nM).

Input line: State, in one line, measured Kd of TGGTGGTGGTTGTTGTGGTGGTGGTGGT (structured_DNA) [AT11-FAM]
Output line: 25.6
